Reference source for all entries: paper PMC6207662

Parameter pIC50, tested on UniProt P53341, listed per item.
Sequence (P53341 whole entry): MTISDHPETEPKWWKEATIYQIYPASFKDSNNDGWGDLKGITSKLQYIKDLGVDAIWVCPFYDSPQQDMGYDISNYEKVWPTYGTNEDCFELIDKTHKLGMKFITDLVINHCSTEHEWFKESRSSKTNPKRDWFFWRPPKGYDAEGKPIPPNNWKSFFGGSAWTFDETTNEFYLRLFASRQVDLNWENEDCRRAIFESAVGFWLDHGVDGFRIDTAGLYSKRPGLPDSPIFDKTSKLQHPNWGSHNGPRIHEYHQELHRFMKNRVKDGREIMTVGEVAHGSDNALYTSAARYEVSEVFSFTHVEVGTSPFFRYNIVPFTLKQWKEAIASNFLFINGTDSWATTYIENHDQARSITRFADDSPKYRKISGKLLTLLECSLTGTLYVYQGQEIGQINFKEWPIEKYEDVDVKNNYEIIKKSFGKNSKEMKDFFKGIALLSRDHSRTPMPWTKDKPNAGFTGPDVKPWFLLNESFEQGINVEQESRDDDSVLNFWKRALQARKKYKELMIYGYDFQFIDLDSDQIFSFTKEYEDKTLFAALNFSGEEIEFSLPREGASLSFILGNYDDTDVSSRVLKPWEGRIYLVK
pIC50: −log10 of the molar value.

Molecule	Value Operator	pIC50
O=c1c(O)c(-c2cc(O)c(O)c(O)c2)oc2cc(O)cc(O)c12	=	5.36
Oc1cc(O)c2cc(O)c(-c3cc(O)c(O)c(O)c3)[o+]c2c1	=	4.50
COc1cc(C(=O)O[C@@H]2Cc3c(O)cc(O)cc3O[C@@H]2c2ccc(O)c(O)c2)cc(O)c1O [ECG3”Me, epicatechin-3-O-(3-O-methyl) gallate]	=	4.83
OC[C@H]1O[C@@H](Oc2cc3c(O)cc(O)cc3[o+]c2-c2cc(O)c(O)c(O)c2)[C@H](O)[C@@H](O)[C@@H]1O [Del-glu, delphinidin-3-O-glucoside]	<	4.00
O=c1c(OC2O[C@H](CO)[C@@H](O)[C@H](O)[C@H]2O)c(-c2cc(O)c(O)c(O)c2)oc2cc(O)cc(O)c12 (some centres unmarked) [Myr-glu, myricetin-3-O-glucoside]	<	4.00
